targetDesc: Genome polyprotein (Hepatitis C virus genotype 1b (isolate Taiwan))
Sequence (P29846 1027-1657 limits assumed): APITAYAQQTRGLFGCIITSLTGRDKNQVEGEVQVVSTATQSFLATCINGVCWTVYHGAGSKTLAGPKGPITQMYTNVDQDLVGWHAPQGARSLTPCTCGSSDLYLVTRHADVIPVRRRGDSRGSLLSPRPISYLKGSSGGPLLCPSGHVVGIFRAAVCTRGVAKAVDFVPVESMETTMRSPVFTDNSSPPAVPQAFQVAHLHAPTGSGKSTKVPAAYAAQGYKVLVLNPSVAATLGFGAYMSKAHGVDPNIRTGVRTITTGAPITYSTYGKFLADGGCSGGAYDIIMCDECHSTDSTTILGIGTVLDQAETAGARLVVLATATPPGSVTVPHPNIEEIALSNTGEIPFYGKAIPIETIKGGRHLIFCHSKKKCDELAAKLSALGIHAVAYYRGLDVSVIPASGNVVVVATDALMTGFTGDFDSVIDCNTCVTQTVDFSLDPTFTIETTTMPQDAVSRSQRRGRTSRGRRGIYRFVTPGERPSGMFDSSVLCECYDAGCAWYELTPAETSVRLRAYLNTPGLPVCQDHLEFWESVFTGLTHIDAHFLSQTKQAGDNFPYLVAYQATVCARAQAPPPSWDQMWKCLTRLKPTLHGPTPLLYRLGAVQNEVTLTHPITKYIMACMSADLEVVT
assayName: Fluorescence Resonant Energy Transfer (FRET) Helicase Assay
conditionLabel: pH 7; 22 °C

compound	IC50 [µM]
O=S(=O)(O)c1ccc(Nc2ccc([C+](c3ccc(Nc4cccc(S(=O)(=O)O)c4)cc3)c3ccc(Nc4cccc(S(=O)(=O)O)c4)cc3)cc2)cc1 [BHT, 1]	40
